- TESTED SYSTEM: 2019-nCoV 3CLpro protein (Severe acute respiratory syndrome coronavirus 2, UniProt P0DTD1)
- EXPERIMENT: 2019-nCoV 3CLpro protein activity, fluorescence method with fluorescent polypeptide substrate
- Format: biochemical
OBSERVED PROPERTY: IC50 (nM)

INSERT INTO measurements (compound, observed_property, unit_label, reported) VALUES
  ('O=c1c2ccccc2[se]n1CCCCCCCCCCCCn1[se]c2ccccc2c1=O', 'IC50', 'nM', 35.6),
  ('O=c1c2cc(O)ccc2[se]n1CCCCn1[se]c2ccc(O)cc2c1=O', 'IC50', 'nM', 41.5),
  ('O=c1c2ccccc2[se]n1CCSSCCn1[se]c2ccccc2c1=O', 'IC50', 'nM', 1460),
  ('O=c1c2ccccc2[se]n1-c1ccc(S(=O)(=O)n2[se]c3ccccc3c2=O)cc1', 'IC50', 'nM', 1240),
  ('O=c1c2ccccc2[se]n1CCCCn1[se]c2ccccc2c1=O [drawing 188]', 'IC50', 'nM', 111),
  ('O=c1c2ccccc2[se]n1CCCCCn1[se]c2ccccc2c1=O', 'IC50', 'nM', 86.2),
  ('O=c1c2ccccc2[se]n1CCCn1[se]c2ccccc2c1=O', 'IC50', 'nM', 115),
  ('Cc1[nH]c(/C=C2\C(=O)Nc3c(F)cccc32)c(C)c1C(=O)OCCn1[se]c2ccccc2c1=O', 'IC50', 'nM', 1640);
